Test system: HT-29
ASSAY_NAME: NCI tumour cell line growth inhibition, 48 h
Active and inactive are the calls of the source. Cut-off read from the data, not from the text of the source: active = GI50 up to about 1.1 µM and inactive = higher.
Returns: one label drawn from true (1) for active, false (0) for inactive

Worked examples follow.
{"COMPOUND": "COC(=O)c1ccccc1NC(=O)C(=O)NNC(=O)c1ccncc1", "GROUP": "false (0)"}
{"COMPOUND": "CCCCCCCCCCCCCCCCCC(=O)NCCCNCCCNC(=O)CCCCCCCCCCCCCCCCC", "GROUP": "false (0)"}
{"COMPOUND": "Cc1cc2c(cc1Cl)SC(NS(=O)(=O)c1ccc(Cl)cc1)=NS2(=O)=O", "GROUP": "false (0)"}
{"COMPOUND": "COc1ccc(C2=NN(C(=O)c3ccc(Cl)cc3)C(O)(c3cc(F)c(Cl)cc3Cl)C2)cc1OC (stereo unspecified)", "GROUP": "false (0)"}

Could you kindly confirm the outcome this assay logged for COc1ccc([C@@H]2CC(=O)N2)cc1 ?
false (0)

Could you kindly confirm the outcome this assay logged for COc1cccc2c1C(=O)C1(O)CCCCC21 (stereo unspecified) ?
false (0)
